Reported Solubility (weight loss) values for the following compounds.
- ASSAY REMARKS: Solubility evaluation: weight loss of fortified dentin in butyric acid
- Set-up: species or system human
- ASSAY CONDITIONS: 0.1 M butyric acid pH 4.4, 24 h, 37 C; mean ± SD
Marks after values point to notes of the source that are not given here.

Look over these answered cases.
1. O=C1O[C@H]([C@@H](O)CO)C([O-])=C1OP(=O)([O-])[O-].O=C1O[C@H]([C@@H](O)CO)C([O-])=C1OP(=O)([O-])[O-].[Mn+2].[Mn+2].[Mn+2]: 16.69 ± 3.97 ^a %
2. O=C1O[C@H]([C@@H](O)CO)C([O-])=C1OP(=O)([O-])[O-].O=C1O[C@H]([C@@H](O)CO)C([O-])=C1OP(=O)([O-])[O-].[Zn+2].[Zn+2].[Zn+2]: 12.88 ± 3.39 ^a %
3. O=C1O[C@H]([C@@H](O)CO)C([O-])=C1OP(=O)([O-])[O-].O=C1O[C@H]([C@@H](O)CO)C([O-])=C1OP(=O)([O-])[O-].[Mg+2].[Mg+2].[Mg+2]: 12.73 ± 4.92 ^a %

Kindly consider the entry below.
Problem: Which Solubility (weight loss) is listed for "O=C1O[C@H]([C@@H](O)CO)C([O-])=C1OP(=O)([O-])[O-].O=C1O[C@H]([C@@H](O)CO)C([O-])=C1OP(=O)([O-])[O-].[Sr+2].[Sr+2].[Sr+2]" ?
Solution: 18.53 ± 3.74 ^a %
